# credit: patent US10689414B2

pIC50 by entry:
system: U87MG cells; assay: Cellular assay, inhibition of 2-HG production in U87MG cells; assay type: cell-based; details: Homo sapiens, U-87 MG, 48 h
pIC50: −log10 of the molar value.

| compound | pIC50 |
| --- | --- |
| N#Cc1ccnc(N2C(=O)OCC[C@H]2C(=O)N(c2cncc(F)c2)[C@H](C(=O)NC2CCC(F)(F)CC2)c2ccccc2Cl)c1 | > 7.00 |
| N#Cc1ccnc(N2C(=O)[C@H](O)C[C@H]2C(=O)N(c2cc(F)cc(F)c2)[C@H](C(=O)NC2CCC(F)(F)CC2)c2ccccc2Cl)c1 | > 7.00 |
| CS(=O)(=O)c1cccc(N(C(=O)[C@@H]2CCC(=O)N2c2nccc(C#N)n2)[C@H](C(=O)NC2CCC(F)(F)CC2)c2ccccc2Cl)c1 | 6.30 to 7.00 |
| N#Cc1ccnc(N2C(=O)OCC[C@H]2C(=O)N(c2cc(F)cc(F)c2)[C@H](C(=O)NC2CC(F)(F)C2)c2ccccc2Cl)c1 | > 7.00 |
| N#Cc1ccnc(N2C(=O)CC[C@H]2C(=O)N(c2cccc(F)c2)[C@H](C(=O)NC2CC(F)(F)C2)c2c(Cl)cccc2Cl)c1 (single isomer, unassigned) | > 7.00 |
| O=C(NC1CC(F)(F)C1)[C@H](c1ccccc1Cl)N(C(=O)[C@@H]1CCC(=O)N1c1ccc(Cl)cn1)c1cccc(F)c1 | 6.30 to 7.00 |
| N#Cc1ccnc(N2C(=O)CC[C@H]2C(=O)N(c2cncc(F)c2)[C@H](C(=O)NC2CC(F)(F)C2)c2ccccc2F)c1 | > 7.00 |
| N#Cc1ccnc(N2C(=O)[C@H](O)C[C@H]2C(=O)N(c2cc(F)cc(F)c2)[C@@H](C(=O)NC2CCC(F)(F)CC2)c2ccccc2Cl)n1 | 6.30 to 7.00 |
| N#Cc1ccnc(N2C(=O)NC[C@H]2C(=O)N(c2cccc(F)c2)[C@H](C(=O)NC2CC(F)(F)C2)c2ccccc2Cl)c1 | > 7.00 |
| N#Cc1ccnc(N2C(=O)[C@H](O)C[C@H]2C(=O)N(c2cccc(F)c2)[C@H](C(=O)NC2CC(F)(F)C2)c2ccccc2Cl)c1 | > 7.00 |
| N#Cc1ccnc(N2C(=O)N(CCO)C[C@H]2C(=O)N(c2cccc(F)c2)C(C(=O)NC2CC(F)(F)C2)c2ccccc2Cl)c1 (stereo partly drawn) | > 7.00 |
| N#Cc1ccnc(N2C(=O)CC[C@H]2C(=O)N(c2cc(F)cc(F)c2)[C@H](C(=O)NC2CC(F)(F)C2)c2ncccc2Cl)c1 | > 7.00 |

====

test system: U87MG cells; assay: Cellular assay, inhibition of 2-HG production in U87MG cells; format: cell-based; conditions: Homo sapiens, U-87 MG, 48 h
Collected IC50 values appear next to each entry.
readout type: IC50

| compound | target entity | measured |
| --- | --- | --- |
| N#Cc1ccnc(N2C(=O)CC[C@H]2C(=O)N(c2cccc(F)c2)[C@H](C(=O)NC2CC(F)(F)C2)c2ccccc2Cl)c1 [Compound 37] | U87MG cells | < 100 nM |
| CS(=O)(=O)c1cccc(N(C(=O)[C@@H]2CCC(=O)N2c2nccc(C#N)n2)C(C(=O)NC2CC(F)(F)C2)c2ccccc2Cl)c1 (mixture of isomers) [Compound 102] | U87MG cells | 100 to 500 nM |
| O=C(NC1CC(F)(F)C1)[C@H](c1ccccc1Cl)N(C(=O)[C@@H]1COCC(=O)N1c1ncccn1)c1cccc(F)c1 [Compound 30] | U87MG cells | 100 to 500 nM |
| N#Cc1ccnc(N2C(=O)CC[C@H]2C(=O)N(c2cccc(C3CC3)c2)[C@H](C(=O)NC2CC(F)(F)C2)c2ccccc2Cl)c1 [Compound 173] | U87MG cells | < 100 nM |
| N#Cc1ccnc(N2C(=O)CC[C@H]2C(=O)N(c2cncc(F)c2)[C@H](C(=O)NC2CC(F)(F)C2)c2ccccc2Cl)c1 [Compound 176] | U87MG cells | < 100 nM |
| N#Cc1ccnc(N2C(=O)CC[C@H]2C(=O)N(c2cccc(C3CC3)c2)[C@H](C(=O)NC2CC(F)(F)C2)c2ccccc2Cl)n1 [Compound 182] | U87MG cells | < 100 nM |

====

system: U87MG cells; assay: Cellular assay, inhibition of 2-HG production in U87MG cells; format: cell-based; settings: Homo sapiens, U-87 MG, 48 h
pIC50: −log10 of the molar value.
pIC50 listing for selected compounds.

| molecular string | pIC50 |
| --- | --- |
| Cc1cccnc1N1C(=O)CC[C@H]1C(=O)N(c1cccc(F)c1)[C@H](C(=O)NC1CC(F)(F)C1)c1ccccc1Cl | 6.30 to 7.00 |
| N#Cc1ccnc(N2C(=O)CNC[C@H]2C(=O)N(c2cc(F)cc(F)c2)[C@H](C(=O)NC2CC(F)(F)C2)c2ccccc2Cl)n1 | > 7.00 |
| CC(C)(C)OC(=O)N1CC(=O)N(c2nccc(C#N)n2)[C@H](C(=O)N(c2cc(F)cc(F)c2)[C@H](C(=O)NC2CCC(F)(F)CC2)c2ccccc2Cl)C1 | > 7.00 |

====

Catalogue of compounds with associated IC50
system: U87MG cells; test: Cellular assay, inhibition of 2-HG production in U87MG cells; format: cell-based; conditions: Homo sapiens, U-87 MG, 48 h

| compound | IC50 |
| --- | --- |
| N#Cc1ccnc(N2C(=O)CC[C@H]2C(=O)N(c2cc(F)ccc2F)[C@H](C(=O)NC2CC(F)(F)C2)c2ccccc2Cl)c1 [Compound 197] | < 100 nM |
| N#Cc1ccnc(N2C(=O)[C@H](O)C[C@H]2C(=O)N(c2cccc(F)c2)[C@H](C(=O)NC2CCC(F)(F)CC2)c2ccccc2Cl)n1 [Compound 123] | < 100 nM |
| N#Cc1ccnc(N2C(=O)OC[C@H]2C(=O)N(c2cncc(F)c2)[C@H](C(=O)NC2CCC(F)(F)CC2)c2ccccc2Cl)c1 [Compound 132] | < 100 nM |

====

tested on: U87MG cells; experiment: Cellular assay, inhibition of 2-HG production in U87MG cells; format: cell-based; conditions: Homo sapiens, U-87 MG, 48 h
Here the recorded IC50 is given for each entry.

| compound | IC50 |
| --- | --- |
| N#Cc1ccnc(N2C(=O)CC[C@H]2C(=O)N(c2cccc(F)c2F)[C@H](C(=O)NC2CC(F)(F)C2)c2ccccc2Cl)c1 [Compound 188] | < 100 nM |
| COc1cccc(N(C(=O)[C@@H]2CCC(=O)N2c2nccc(C#N)n2)[C@H](C(=O)NC2CC(F)(F)C2)c2ccccc2Cl)c1 [Compound 164] | < 100 nM |
| N#Cc1cccc(N(C(=O)[C@@H]2CCC(=O)N2c2cc(C#N)ccn2)[C@H](C(=O)NC2CCC(F)(F)CC2)c2ccccc2Cl)c1 [Compound 166] | < 100 nM |
| N#Cc1ccnc(N2C(=O)CC[C@H]2C(=O)N(c2cccc(CO)c2)[C@H](C(=O)NC2CC(F)(F)C2)c2ccccc2Cl)c1 [Compound 131] | < 100 nM |
| [2H]c1c([2H])c([2H])c([C@@H](C(=O)NC2CC(F)(F)C2)N(C(=O)[C@@H]2CCC(=O)N2c2cc(C#N)ccn2)c2cc(F)cc(F)c2)c(Cl)c1[2H] [Compound 163] | < 100 nM |
| C[C@]1(O)C[C@@H](C(=O)N(c2cccc(F)c2)[C@H](C(=O)NC2CC(F)(F)C2)c2ccccc2Cl)N(c2cc(C#N)ccn2)C1=O (stereo in doubt) [Compound 183] | < 100 nM |
| N#Cc1ccnc(N2C(=O)CN(C3CC3)C[C@H]2C(=O)N(c2cc(F)cc(F)c2)[C@H](C(=O)NC2CC(F)(F)C2)c2ccccc2Cl)c1 [Compound 106] | < 100 nM |
| CS(=O)(=O)c1cc(F)cc(N(C(=O)[C@@H]2CCC(=O)N2c2nccc(C#N)n2)[C@H](C(=O)NC2CCC(F)(F)CC2)c2ccccc2Cl)c1 [Compound 168] | < 100 nM |
| N#Cc1ccnc(N2C(=O)CC[C@H]2C(=O)N(c2cccc(-c3cn[nH]c3)c2)[C@H](C(=O)NC2CC(F)(F)C2)c2ccccc2Cl)c1 (single isomer, unassigned) [Compound 200] | < 100 nM |
| N#Cc1ccnc(N2C(=O)[C@H](O)C[C@H]2C(=O)N(c2cccc(F)c2)[C@H](C(=O)NC2CCC(F)(F)CC2)c2ccccc2Cl)c1 [Compound 121] | < 100 nM |
| N#Cc1ccnc(N2C(=O)[C@H](O)C[C@H]2C(=O)N(c2cc(F)cc(F)c2)[C@@H](C(=O)NC2CCC(F)(F)CC2)c2ccccc2Cl)c1 [Compound 124] | < 100 nM |
| N#Cc1ccnc(N2C(=O)CC[C@H]2C(=O)N(c2cccc(F)c2)[C@H](C(=O)NC2CC(F)(F)C2)c2ccccc2Cl)n1 [Compound 68] | < 100 nM |
| O=C(NC1CC(F)(F)C1)[C@H](c1ccccc1Cl)N(C(=O)[C@@H]1COC(=O)N1c1cscn1)c1cccc(F)c1 [Compound 72] | < 100 nM |
| N#Cc1ccnc(N2C(=O)CNC[C@H]2C(=O)N(c2cc(F)cc(F)c2)[C@H](C(=O)NC2CC(F)(F)C2)c2ccccc2Cl)c1 [Compound 100] | < 100 nM |
| CS(=O)(=O)Nc1cccc(N(C(=O)[C@@H]2CCC(=O)N2c2cc(C#N)ccn2)[C@H](C(=O)NC2CC(F)(F)C2)c2ccccc2Cl)c1 [Compound 159] | < 100 nM |
| N#Cc1cccc(N(C(=O)[C@@H]2CCC(=O)N2c2nccc(C#N)n2)[C@H](C(=O)NC2CC(F)(F)C2)c2ccccc2Cl)c1 [Compound 167] | < 100 nM |
| O=C(NC1CC(F)(F)C1)[C@H](c1ccccc1Cl)N(C(=O)[C@@H]1CCC(=O)N1c1ncccn1)c1cc(F)cc(F)c1 [Compound 70] | < 100 nM |
| N#Cc1ccnc(N2C(=O)[C@@H](O)C[C@H]2C(=O)N(c2cccc(F)c2)[C@H](C(=O)NC2CC(F)(F)C2)c2ccccc2Cl)c1 [Compound 118] | < 100 nM |
| O=C(NC1CC(F)C1)[C@H](c1ccccc1Cl)N(C(=O)[C@@H]1CCC(=O)N1c1ncccn1)c1cccc(F)c1 (stereo partly shown) [Compound 49] | 100 to 500 nM |
| CC(C)(O)c1cccc(N(C(=O)[C@@H]2CCC(=O)N2c2cc(C#N)ccn2)[C@H](C(=O)NC2CC(F)(F)C2)c2ccccc2Cl)c1 [Compound 179] | < 100 nM |
| O=C(NC1CCC(F)(F)CC1)[C@H](c1ccccc1Cl)N(C(=O)[C@@H]1COC(=O)N1c1ncccn1)c1cccc(F)c1 [Compound 76] | < 100 nM |
| N#Cc1ccnc(N2C(=O)CC[C@H]2C(=O)N(c2cc(F)cc(S(N)(=O)=O)c2)[C@H](C(=O)NC2CC(F)(F)C2)c2ccccc2Cl)c1 [Compound 158] | < 100 nM |
| O=C(NC1CC(F)(F)C1)[C@H](c1ccccc1Cl)N(C(=O)[C@@H]1COCC(=O)N1c1ncccn1)c1cccc(F)c1 [Compound 45] | 100 to 500 nM |
| O=C(NC1CC(F)(F)C1)C(c1ccccc1Cl)N(C(=O)[C@@H]1CCC(=O)N1c1ccccc1)c1cccc(F)c1 (stereo partly shown) [Compound 23] | 100 to 500 nM |
| N#Cc1ccnc(N2C(=O)CC[C@H]2C(=O)N(c2cc(F)cc(F)c2)[C@H](C(=O)NC2CC(F)(F)C2)c2ccccc2Cl)c1 [Compound 71] | < 100 nM |
